In this section, each of the compounds is paired with its reported tissue uptake at 120 h.
# procedure summary: in vivo
# Set-up: species or system mice
# test conditions: male, NODSCID 1L2RγKO, mouse, iv, total radioactivity, Seminal uptake
Give the value, in units of %ID/g, as a plain number.

Dear colleague, I am looking for the recorded tissue uptake at 120 h of the following compound: COc1ccc(CCCC(=O)NCC(=O)N[C@@H](CCCCNC(=O)CN2CCN(CC(=O)O)CCN(CC(=O)O)CCN(CC(=O)O)CC2)C(=O)NC[C@H]2CC[C@H](C(=O)N[C@@H](Cc3c4ccccc4cc4ccccc34)C(=O)NCCCC[C@H](NC(=O)N[C@@H](CSCC(=O)O)C(=O)O)C(=O)O)CC2)cc1 [177Lu-HTK04048, metal not drawn]
0.04

The record that follows has no tissue uptake at 120 h shown yet.
Endpoint output: tissue uptake at 120 h of COc1ccc(CCCC(=O)NCC(=O)N[C@@H](CCCCNC(=O)CN2CCN(CC(=O)O)CCN(CC(=O)O)CCN(CC(=O)O)CC2)C(=O)NC[C@H]2CC[C@H](C(=O)N[C@@H](Cc3c4ccccc4cc4ccccc34)C(=O)NCCCC[C@H](NC(=O)N[C@@H](COCC(=O)O)C(=O)O)C(=O)O)CC2)cc1 [177Lu-HTK04028, metal not drawn] . Value?
0.05

====

Catalogue of molecules with associated tissue uptake at 72 h
# procedure summary: in vivo
# Set-up: species or system mice
# test conditions: male, NODSCID 1L2RγKO, mouse, iv, total radioactivity, Adrenal glands uptake
# unit: %ID/g | format: bare number

Here's what some known entries look like.
Sample COc1ccc(CCCC(=O)NCC(=O)N[C@@H](CCCCNC(=O)CN2CCN(CC(=O)O)CCN(CC(=O)O)CCN(CC(=O)O)CC2)C(=O)NC[C@H]2CC[C@H](C(=O)N[C@@H](Cc3c4ccccc4cc4ccccc34)C(=O)NCCCC[C@H](NC(=O)N[C@@H](COCC(=O)O)C(=O)O)C(=O)O)CC2)cc1 [177Lu-HTK04028, metal not drawn] — what was its tissue uptake at 72 h?
0.48

And COc1ccc(CCCC(=O)NCC(=O)N[C@@H](CCCCNC(=O)CN2CCN(CC(=O)O)CCN(CC(=O)O)CCN(CC(=O)O)CC2)C(=O)NC[C@H]2CC[C@H](C(=O)N[C@@H](Cc3c4ccccc4cc4ccccc34)C(=O)NCCCC[C@H](NC(=O)N[C@@H](CCCC(=O)O)C(=O)O)C(=O)O)CC2)cc1 [177Lu-HTK03170, metal not drawn] ?
0.27

Repeat with O=C(O)CCC[C@H](NC(=O)N[C@@H](CCCCNC(=O)[C@H](Cc1c2ccccc2cc2ccccc12)NC(=O)[C@H]1CC[C@H](CNC(=O)CN2CCN(CC(=O)O)CCN(CC(=O)O)CCN(CC(=O)O)CC2)CC1)C(=O)O)C(=O)O [177Lu-HTK03149, metal not drawn]
0.12

New cases:
Data request, read-out tissue uptake at 72 h, for COc1ccc(CCCC(=O)NCC(=O)N[C@@H](CCCCNC(=O)CN2CCN(CC(=O)O)CCN(CC(=O)O)CCN(CC(=O)O)CC2)C(=O)NC[C@H]2CC[C@H](C(=O)N[C@@H](Cc3c4ccccc4cc4ccccc34)C(=O)NCCCC[C@H](NC(=O)N[C@@H](CSCC(=O)O)C(=O)O)C(=O)O)CC2)cc1 [177Lu-HTK04048, metal not drawn]
0.34

Also need O=C(O)CCC[C@H](NC(=O)N[C@@H](CCCCNC(=O)[C@H](Cc1c2ccccc2cc2ccccc12)NC(=O)[C@H]1CC[C@H](CNC(=O)[C@H](CCCCNC(=O)CN2CCN(CC(=O)O)CCN(CC(=O)O)CCN(CC(=O)O)CC2)NC(=O)CNC(=O)CCCc2ccc(Cl)cc2)CC1)C(=O)O)C(=O)O [177Lu-HTK03153, metal not drawn] , thanks.
1.2
